Reported half-life values are given for each entry in this list.
# RUN DESCRIPTION: In vivo pharmacokinetics in monkeys
# PARTICULARS: both sexes, plasma; cynomolgus monkey, 1.0 mg/kg IV, cassette dosing
QUANTITY MEASURED: half-life (h)

COMPOUND: Cc1c(NC(=O)c2nc3c(n2C)CCN(CCC24CCC(C(=O)O)(CC2)C4)C3)cccc1-c1cccc(Nc2nc(C(F)F)nc3cc(CN4CC[C@@H](O)C4)cnc23)c1C [Example 5]
VALUE MEASURED: 8.48
--
COMPOUND: Cc1c(Nc2nc(C(F)F)nc3cc(CN4CC[C@@H](O)C4)cnc23)cccc1-c1cccc(NC(=O)c2nc3c(n2C)CCN(CCC24CCC(C(=O)O)(CC2)C4)C3)c1Cl [Example 1]
VALUE MEASURED: 6.35
--
COMPOUND: Cc1c(Nc2nc(C(F)F)nc3cc(CN4CC[C@@](C)(O)C4)cnc23)cccc1-c1cccc(NC(=O)c2nc3c(n2C)CCN(CCC24CCC(C(=O)O)(CC2)C4)C3)c1Cl [Example 2]
VALUE MEASURED: 6.23

* * *

Quick list: log10(EC50) per entry.
# System: PD-L1 aAPC/CHO-K1 cells and Jurkat-PD-1-NFAT effector cells
# RUN DESCRIPTION: Nuclear factor of activated T-cells (NFAT) assay
# Type: cell-based
# PARTICULARS: Cricetulus griseus, CHO-K1; luminescence, 24 hours
QUANTITY MEASURED: log10(EC50) (log10 of the value in nM)

COMPOUND: Cc1c(Nc2nc(C(F)F)nc3cc(CN4CCC[C@H]4C)cnc23)cccc1-c1cccc(NC(=O)c2nc3c(n2C)CCN(CCC24CCC(C(=O)O)(CC2)C4)C3)c1Cl
MEASUREMENT TARGET: PD-L1 aAPC/CHO-K1 cells and Jurkat-PD-1-NFAT effector cells
log10(EC50): 0.85
--
COMPOUND: Cn1c(C(=O)Nc2cccc(-c3cccc(NC(=O)c4nc5c(n4C)CCN(C4CCC(O)CC4)C5)c3Cl)c2Cl)nc2c1CCN(CC13CCC(C(=O)O)(CC1)C3)C2 (centres unmarked) [Example 183, reference compound]
MEASUREMENT TARGET: PD-L1 aAPC/CHO-K1 cells and Jurkat-PD-1-NFAT effector cells
log10(EC50): 1.26
--
COMPOUND: Cc1c(Nc2nc(C(F)F)nc3cc(CN4CC[C@@](C)(O)C4)cnc23)cccc1-c1cccc(NC(=O)c2nc3c(n2C)CCN(CCC24CCC(C(=O)O)(CC2)C4)C3)c1Cl
MEASUREMENT TARGET: PD-L1 aAPC/CHO-K1 cells and Jurkat-PD-1-NFAT effector cells
log10(EC50): 0.60
--
COMPOUND: Cn1c(C(=O)Nc2cccc(-c3cccc(NC(=O)c4nc5c(n4C)CCN(C4CCOCC4)C5)c3Cl)c2Cl)nc2c1CCN(CC13CCC(C(=O)O)(CC1)C3)C2 [Example 179, reference compound]
MEASUREMENT TARGET: PD-L1 aAPC/CHO-K1 cells and Jurkat-PD-1-NFAT effector cells
log10(EC50): 2.85
--
COMPOUND: Cc1c(Nc2nc(C(F)F)nc3cc(CN[C@@H]4CCC[C@@H]4O)cnc23)cccc1-c1cccc(NC(=O)c2nc3c(n2C)CCN(CCC24CCC(C(=O)O)(CC2)C4)C3)c1Cl
MEASUREMENT TARGET: PD-L1 aAPC/CHO-K1 cells and Jurkat-PD-1-NFAT effector cells
log10(EC50): 0.48

The measurements presented in this section are drawn from patent US11401279B2.
